Examples of compounds with documented pIC50 follow.
- Target Entity: human recombinant 6His-Nterm SHP2 full-length (Thr2-Arg593) (Homo sapiens, UniProt Q06124)
- Construct: 6His-Nterm SHP2 full-length (Thr2-Arg593, R&D system); 6His (N)
- Sequence (Q06124 2-593): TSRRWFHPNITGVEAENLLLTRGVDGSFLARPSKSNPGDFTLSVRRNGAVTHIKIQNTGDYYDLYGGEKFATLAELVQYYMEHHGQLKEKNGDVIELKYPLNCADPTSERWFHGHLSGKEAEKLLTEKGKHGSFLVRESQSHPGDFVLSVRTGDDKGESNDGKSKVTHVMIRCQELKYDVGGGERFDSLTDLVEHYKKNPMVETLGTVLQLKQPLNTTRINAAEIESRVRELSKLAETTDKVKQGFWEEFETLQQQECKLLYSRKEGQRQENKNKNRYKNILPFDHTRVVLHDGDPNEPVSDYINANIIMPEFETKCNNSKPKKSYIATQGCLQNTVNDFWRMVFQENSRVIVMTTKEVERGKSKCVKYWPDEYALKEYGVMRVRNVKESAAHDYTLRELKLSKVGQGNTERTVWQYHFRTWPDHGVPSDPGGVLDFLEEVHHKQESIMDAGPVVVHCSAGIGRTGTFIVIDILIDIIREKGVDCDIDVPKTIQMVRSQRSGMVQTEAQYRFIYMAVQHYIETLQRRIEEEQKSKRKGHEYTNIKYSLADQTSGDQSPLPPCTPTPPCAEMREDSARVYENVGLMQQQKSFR
- Assay Summary: SHP2 Phosphatase Assay (DiFMUP fluorescence)
- Condition Label: SHP2 0.2 nM pre-incubated with 100 nM bi-phosphorylated activating peptide; compound 1000-0.05 nM, 30 min pre-incubation; DiFMUP 20 µM, 45 min, room temperature; 10-concentration dose-response
Where a name gives a salt, the structure may show the parent alone.
pIC50 here is simply -log10 of the concentration when that concentration is written in mol/L.

1. CCc1nccc(-c2c(C)nc(N3CCC4(CC3)Cc3ncccc3[C@H]4N)c3ccnn23)c1Cl; 8.52
2. Cc1nc(N2CCC3(CC2)Cc2nc(C(F)F)ccc2[C@H]3N)c2ccnn2c1-c1cnn(C)c1C; 6.68
3. Cc1nc(N2CCC3(CC2)Oc2ncccc2[C@H]3N)c2ccnn2c1-c1ccc(F)c2cc[nH]c12; 7.38
4. Cc1nc(N2CCC3(CC2)Cc2ncccc2[C@H]3N)c2ccnn2c1-c1cccc(C#N)c1F; 8.30

Lab note: next compound to report on.
(Q) Data request, read-out pIC50, for COc1ccc2c(c1)[C@@H](N)C1(CCN(c3nc(C)c(-c4cnn(C)c4C)n4nccc34)CC1)C2 [Compound 120, hydrochloride]
(A) 7.96
